Items are presented alongside their recorded IC50.
- measured.target: Human TRPC6 (Homo sapiens)
- Construct: expressed in transfected cells
- Sequence (Q9Y210 1-931): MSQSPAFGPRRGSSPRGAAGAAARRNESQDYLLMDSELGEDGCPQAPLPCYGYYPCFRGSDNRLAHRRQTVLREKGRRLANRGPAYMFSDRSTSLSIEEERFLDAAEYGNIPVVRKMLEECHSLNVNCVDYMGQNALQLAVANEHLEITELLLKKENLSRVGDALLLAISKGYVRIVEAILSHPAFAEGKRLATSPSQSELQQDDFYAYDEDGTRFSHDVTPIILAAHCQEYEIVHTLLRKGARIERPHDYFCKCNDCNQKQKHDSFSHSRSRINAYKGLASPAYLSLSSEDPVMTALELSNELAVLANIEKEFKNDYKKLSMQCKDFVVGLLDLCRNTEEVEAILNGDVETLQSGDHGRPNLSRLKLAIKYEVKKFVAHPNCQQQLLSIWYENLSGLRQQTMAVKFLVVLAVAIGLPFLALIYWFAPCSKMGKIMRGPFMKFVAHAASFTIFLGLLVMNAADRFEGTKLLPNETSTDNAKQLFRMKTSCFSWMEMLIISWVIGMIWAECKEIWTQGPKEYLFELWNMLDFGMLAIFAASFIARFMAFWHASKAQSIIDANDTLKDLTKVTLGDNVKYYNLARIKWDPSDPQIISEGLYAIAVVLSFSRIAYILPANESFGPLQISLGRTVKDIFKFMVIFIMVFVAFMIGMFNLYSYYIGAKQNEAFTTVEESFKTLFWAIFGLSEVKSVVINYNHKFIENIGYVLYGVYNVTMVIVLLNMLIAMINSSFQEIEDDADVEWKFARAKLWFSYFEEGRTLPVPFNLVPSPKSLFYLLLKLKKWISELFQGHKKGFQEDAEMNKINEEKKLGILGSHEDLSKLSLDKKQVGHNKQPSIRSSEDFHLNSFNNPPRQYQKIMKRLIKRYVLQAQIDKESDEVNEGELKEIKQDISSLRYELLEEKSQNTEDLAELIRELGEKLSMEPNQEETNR
- procedure.summary: Evaluation of TRPC6 channel inhibitory activity (1), FLIPR Calcium 5 Assay Kit, OAG stimulation (Compound Nos. 1-1293)
- Assay type: cell-based
result.type: IC50

compound	result.type	result
N#Cc1ccc(-c2ncc(CCN)cn2)c(Oc2cc(N3C4CCC3CC4)ncc2C#N)c1 [compound 748]	IC50	< 10 nM
Cc1nc(Oc2cc(C#N)ccc2-n2cc(C3=CCNCC3)cn2)cc(C2CCCC2)n1 [Compound 221]	IC50	10 to 1000 nM
Cc1cc(Oc2cc(C#N)ccc2-c2ncc(CCN)cn2)cc(N2C3CCC2COC3)n1 [compound 445]	IC50	< 10 nM
Cc1nc(Oc2cc(C#N)ccc2-c2ncc(CCN)cn2)cc(N2C3CCC2CC3)n1 [compound 671]	IC50	< 10 nM
Cc1cc(Oc2cc(C#N)ccc2-c2ccc([C@H](O)CN)cn2)cc(N2C3CCC2COC3)n1 [compound 446]	IC50	< 10 nM
N#Cc1ccc(-c2ncc(CN)cn2)c(Oc2cc(N3C4CCC3CC4)ncc2C#N)c1 [compound 749]	IC50	10 to 1000 nM
Cc1nc(Oc2cc(C#N)ccc2-c2ncc(CN)cn2)cc(N2C3CCC2CC3)n1 [compound 672]	IC50	< 10 nM
Cc1cc(Oc2cc(C#N)ccc2-c2ncc(CN)cn2)cc(N2C3CCC2CC3)n1 [compound 826]	IC50	< 10 nM
Cc1nc(Oc2cc(C#N)ccc2-c2ccc(CC3(N)COC3)cn2)cc(N2C3CCC2CC3)n1 [Compound No. 670]	IC50	< 10 nM
Cn1nc(N2C3CCC2COC3)cc1Oc1cc(C#N)ccc1-c1ncc(CN)cn1 [compound 944]	IC50	10 to 1000 nM
N#Cc1ccc(-c2ncc(CCN)cn2)c(Oc2nnc(N3C4CCC3CC4)s2)c1 [compound 767]	IC50	< 10 nM
Cc1cc(Oc2cc(C#N)ccc2-c2ncc(CCN)cn2)cc(N2C3CCC2CC3)n1 [compound 827]	IC50	< 10 nM
N#Cc1ccc(-c2ncc(CCN)cn2)c(Oc2ccc(N3C4CCC3CC4)nc2)c1 [compound 752]	IC50	10 to 1000 nM

----------
Items are presented alongside their recorded IC50.
- measured.target: Human TRPC6 (Homo sapiens, UniProt Q9Y210)
- Construct: expressed in transfected cells
- Sequence (Q9Y210 1-931): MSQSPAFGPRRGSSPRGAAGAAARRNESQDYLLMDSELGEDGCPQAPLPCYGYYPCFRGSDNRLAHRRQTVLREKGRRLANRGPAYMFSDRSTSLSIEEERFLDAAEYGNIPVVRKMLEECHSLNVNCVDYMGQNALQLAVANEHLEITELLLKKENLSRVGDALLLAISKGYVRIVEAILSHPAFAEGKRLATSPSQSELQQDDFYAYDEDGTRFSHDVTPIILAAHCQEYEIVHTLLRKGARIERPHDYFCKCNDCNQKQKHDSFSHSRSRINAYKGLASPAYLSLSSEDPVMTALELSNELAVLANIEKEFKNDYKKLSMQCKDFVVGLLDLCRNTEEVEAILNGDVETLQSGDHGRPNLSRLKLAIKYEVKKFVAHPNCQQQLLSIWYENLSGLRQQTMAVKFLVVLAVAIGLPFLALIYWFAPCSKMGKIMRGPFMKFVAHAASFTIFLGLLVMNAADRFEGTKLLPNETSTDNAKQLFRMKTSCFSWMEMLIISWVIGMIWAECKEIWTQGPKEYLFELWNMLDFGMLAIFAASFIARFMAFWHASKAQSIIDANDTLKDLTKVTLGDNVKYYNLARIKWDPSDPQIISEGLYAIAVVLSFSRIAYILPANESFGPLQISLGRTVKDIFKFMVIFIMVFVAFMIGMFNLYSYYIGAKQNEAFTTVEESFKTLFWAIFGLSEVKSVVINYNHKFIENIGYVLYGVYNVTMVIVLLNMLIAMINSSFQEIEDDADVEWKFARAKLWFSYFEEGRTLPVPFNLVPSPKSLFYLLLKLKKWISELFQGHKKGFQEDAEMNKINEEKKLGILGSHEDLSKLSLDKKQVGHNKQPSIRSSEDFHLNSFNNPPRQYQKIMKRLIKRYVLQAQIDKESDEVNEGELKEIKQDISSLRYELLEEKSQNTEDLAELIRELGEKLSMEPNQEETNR
- procedure.summary: Evaluation of TRPC6 channel inhibitory activity (1), FLIPR Calcium 5 Assay Kit, OAG stimulation (Compound Nos. 1-1293)
- Assay type: cell-based
- test.parameters: Human TRPC6 stably-expressing cells, OAG 30 μM, FLIPR Calcium 5 Assay Kit; read-out: Inhibitory activity (pIC50 class) (converted)

compound	measured.target	IC50
CCN(CC)c1cc(Oc2cc(F)ccc2-c2ccc(CCN)cn2)n(C)n1 [compound 991]	Human TRPC6 (Homo sapiens, UniProt Q9Y210)	< 0.01 µM
Cn1nc(-c2ccccn2)cc1Oc1cc(C#N)ccc1-c1ncc(CNC2(C)COC2)cn1 [compound 665]	Human TRPC6 (Homo sapiens, UniProt Q9Y210)	> 1 µM
CCc1cc(Oc2cc(C#N)ccc2-c2ncc(OCCN)cn2)n(C)n1 [compound 386]	Human TRPC6 (Homo sapiens, UniProt Q9Y210)	0.01 to 1 µM
N#Cc1ccc(-c2ncc(CCN)cn2)c(Sc2nnc(N3CCCCC3)s2)c1 [compound 1270]	Human TRPC6 (Homo sapiens, UniProt Q9Y210)	0.01 to 1 µM
Cn1nc(C(F)(F)F)cc1-c1cc(Oc2cc(C#N)ccc2-c2ccc(CCN)cc2)cnn1 [Compound 111]	Human TRPC6 (Homo sapiens, UniProt Q9Y210)	0.01 to 1 µM
Cc1nn(-c2ccccn2)c(C)c1Oc1cc(C#N)ccc1-c1ncc(CCN)cn1 [compound 941]	Human TRPC6 (Homo sapiens, UniProt Q9Y210)	> 1 µM
Cc1cc(N2CCOCC2)cc(Oc2cc(C#N)ccc2-c2ccc(CCN)cc2)n1 [Compound 128]	Human TRPC6 (Homo sapiens, UniProt Q9Y210)	> 1 µM
Cn1nc(-c2ncccc2F)cc1Oc1cc(C#N)ccc1-c1ncc(CN)cn1 [compound 649]	Human TRPC6 (Homo sapiens, UniProt Q9Y210)	0.01 to 1 µM
Cc1cc(Oc2cc(C#N)ccc2-c2ccc(CCN)cn2)cc(N2CCOCC2)n1 [Compound 173]	Human TRPC6 (Homo sapiens, UniProt Q9Y210)	< 0.01 µM
Cc1nc(Oc2cc(C#N)ccc2-c2ccc(C(CN)OCC(=O)O)cc2)cc(N2CCOCC2)n1 (stereo not shown) [Compound 63]	Human TRPC6 (Homo sapiens, UniProt Q9Y210)	> 1 µM
Cn1nc(C(F)(F)F)cc1Oc1cc(C#N)ccc1-n1cc(N2CCNCC2=O)cn1 [Compound 220]	Human TRPC6 (Homo sapiens, UniProt Q9Y210)	> 1 µM
Cn1nc(-c2nccs2)cc1Oc1cc(C#N)ccc1-c1ncc(CCN)cn1 [compound 391]	Human TRPC6 (Homo sapiens, UniProt Q9Y210)	< 0.01 µM
Cn1nc(C2CCOCC2)cc1Oc1cc(C#N)ccc1-c1ccc(C(N)CO)cn1 (stereo not shown) [compound 514]	Human TRPC6 (Homo sapiens, UniProt Q9Y210)	0.01 to 1 µM
CC(C)c1cc(Oc2cc(C#N)ccc2-c2ccc(CCN)cn2)n(C)n1 [Compound 229]	Human TRPC6 (Homo sapiens, UniProt Q9Y210)	< 0.01 µM
CC(C)n1cc(C(=O)c2cc(F)ccc2-c2ncc(CCN)cn2)cn1 [compound 1102]	Human TRPC6 (Homo sapiens, UniProt Q9Y210)	0.01 to 1 µM
COC(C)c1cn(Cc2cc(C#N)ccc2-c2ccc(CCN)cn2)c(C)n1 (stereo not shown) [compound 1140]	Human TRPC6 (Homo sapiens, UniProt Q9Y210)	0.01 to 1 µM
Cc1nc(Oc2cc(C#N)ccc2-c2ncc(CCN)cn2)cc(-c2ccccc2)n1 [Compound 275]	Human TRPC6 (Homo sapiens, UniProt Q9Y210)	< 0.01 µM
Cc1nc(OCCC(F)(F)F)cc(Oc2cc(C#N)ccc2-c2ccc(CCN)cc2)n1 [Compound 37]	Human TRPC6 (Homo sapiens, UniProt Q9Y210)	> 1 µM
Cc1nc(Oc2cc(C#N)ccc2-c2ccc([C@H](O)CN)cn2)cc(-c2ccccc2)n1 [compound 525]	Human TRPC6 (Homo sapiens, UniProt Q9Y210)	< 0.01 µM
Cn1nc(N2CCCCC2)cc1Oc1cc(C#N)ccc1-c1ccc(CC2(N)COC2)cn1 [compound 742]	Human TRPC6 (Homo sapiens, UniProt Q9Y210)	< 0.01 µM
N#Cc1ccc(-c2ccc(C(CN)C(F)(F)F)cc2)c(Oc2cnnc(N3CCOCC3)c2)c1 (stereo not shown) [Compound 122]	Human TRPC6 (Homo sapiens, UniProt Q9Y210)	0.01 to 1 µM
N#Cc1ccc(-c2ccc(CCN)cn2)c(Oc2cc(N3CCCCC3)cnn2)c1 [Compound 92]	Human TRPC6 (Homo sapiens, UniProt Q9Y210)	> 1 µM
Cc1nn(C(C)C)cc1Oc1cc(F)ccc1-c1ncc(CCN)cn1 [compound 983]	Human TRPC6 (Homo sapiens, UniProt Q9Y210)	< 0.01 µM
Cn1nc(-c2ccccn2)cc1Oc1cc(C#N)ccc1-c1ccc(CN)cn1 [compound 609]	Human TRPC6 (Homo sapiens, UniProt Q9Y210)	< 0.01 µM
CN(C)c1cc(Sc2cc(C#N)ccc2-c2ccc(CN)cn2)cnn1 [compound 1266]	Human TRPC6 (Homo sapiens, UniProt Q9Y210)	0.01 to 1 µM
CC(C)Cc1cc(Oc2cc(C#N)ccc2-c2ccc(CCN)cc2)n(C)n1 [Compound 211]	Human TRPC6 (Homo sapiens, UniProt Q9Y210)	< 0.01 µM
Cc1cc(Oc2cc(C#N)ccc2-c2ccc(CN)nn2)cc(N2CCOCC2)n1 [compound 871]	Human TRPC6 (Homo sapiens, UniProt Q9Y210)	> 1 µM
Cn1nc(C2CC2)cc1Oc1cc(C#N)ccc1-c1cc(OCCN)ccn1 [compound 556]	Human TRPC6 (Homo sapiens, UniProt Q9Y210)	0.01 to 1 µM
N#Cc1ccc(-c2ncc(CN)cn2)c(Oc2cnnc(C3CC3)c2)c1 [compound 713]	Human TRPC6 (Homo sapiens, UniProt Q9Y210)	0.01 to 1 µM
NCCc1ccc(-c2ccc(F)cc2Oc2cnnc(N3CCOCC3)c2)nc1 [compound 1006]	Human TRPC6 (Homo sapiens, UniProt Q9Y210)	0.01 to 1 µM
CN(C)c1cc(Oc2cc(F)ccc2-c2ccc(CCN)cn2)n(C)n1 [compound 1000]	Human TRPC6 (Homo sapiens, UniProt Q9Y210)	< 0.01 µM
Cc1cc(Oc2cc(C#N)ccc2-c2ccc([C@H](O)CN)cn2)cc(-c2ncccn2)n1 [compound 692]	Human TRPC6 (Homo sapiens, UniProt Q9Y210)	> 1 µM
Cn1nc(-c2ccccc2)cc1Oc1cc(C#N)ccc1-c1ccc(C(N)C(=O)O)cn1 (stereo not shown) [compound 428]	Human TRPC6 (Homo sapiens, UniProt Q9Y210)	0.01 to 1 µM
Cn1nc(C2CC2)cc1Oc1cc(C#N)ccc1-c1ncc(CN)o1 [compound 584]	Human TRPC6 (Homo sapiens, UniProt Q9Y210)	> 1 µM

Data origin: patent US20230167073A1
